Target: M1 muscarinic receptor (Homo sapiens)
Construct: expressed in transfected cells; host or cells: CHO
Assay: Functional mobilization of intracellular calcium (FLIPR) in CHO cells expressing M1
Format: cell-based
Details: CHO cells expressing M1, calcium mobilization
pEC50: −log10 of the molar value.
For each of the compounds below, state its pEC50.

Example results:
>  <COMPOUND>
CN1C(=O)CCC2(CCN(C3CCCCCC3)CC2)c2ccccc21

>  <TARGET OR TEST SYSTEM>
M1 muscarinic receptor (Homo sapiens)

>  <OBSERVABLE>
pEC50

>  <VALUE OBSERVED>
5.00 to 5.70

$$$$
>  <COMPOUND>
CCOC(=O)N1CCC(N2CCC3(CCCN(C(N)=O)c4ccccc43)CC2)CC1

>  <TARGET OR TEST SYSTEM>
M1 muscarinic receptor (Homo sapiens)

>  <OBSERVABLE>
pEC50

>  <VALUE OBSERVED>
> 5.70

$$$$
>  <COMPOUND>
CN1C(=O)CCC2(CCN(C3CC4CCC(C4)C3)CC2)c2ccccc21 (centres unmarked)

>  <TARGET OR TEST SYSTEM>
M1 muscarinic receptor (Homo sapiens)

>  <OBSERVABLE>
pEC50

>  <VALUE OBSERVED>
> 5.70

$$$$
>  <COMPOUND>
CCOC(=O)N1C2CCC1CC(N1CCC3(CCCN(C(=O)N(C)C)c4ccccc43)CC1)C2 (centres unmarked)

>  <TARGET OR TEST SYSTEM>
M1 muscarinic receptor (Homo sapiens)

>  <OBSERVABLE>
pEC50

>  <VALUE OBSERVED>
< 5.00

$$$$

Now look at this entry.
(Q) Identify pEC50 associated with the compound CCOC(=O)N1CCC(N2CCC3(CCCN(C(C)=O)c4ccccc43)CC2)CC1
(A) > 5.70

====

For each of the compounds below, state its EC50.
Biological target: M1 muscarinic receptor (Homo sapiens, UniProt P11229)
Sequence (P11229 whole entry): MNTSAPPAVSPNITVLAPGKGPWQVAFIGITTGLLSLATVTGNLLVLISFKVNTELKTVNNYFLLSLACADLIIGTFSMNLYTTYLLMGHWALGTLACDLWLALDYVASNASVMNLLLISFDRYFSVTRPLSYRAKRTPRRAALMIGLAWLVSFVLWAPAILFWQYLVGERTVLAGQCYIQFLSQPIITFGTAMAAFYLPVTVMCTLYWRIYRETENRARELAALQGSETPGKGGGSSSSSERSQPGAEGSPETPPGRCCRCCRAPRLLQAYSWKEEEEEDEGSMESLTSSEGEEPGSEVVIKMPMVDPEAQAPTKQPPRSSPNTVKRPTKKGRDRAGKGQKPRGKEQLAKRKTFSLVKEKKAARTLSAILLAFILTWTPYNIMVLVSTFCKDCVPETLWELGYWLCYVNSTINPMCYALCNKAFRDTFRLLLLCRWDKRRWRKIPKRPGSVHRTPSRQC
Experiment: Functional mobilization of intracellular calcium (FLIPR) in CHO cells expressing M1
Conditions: CHO cells expressing M1, calcium mobilization

>  <COMPOUND>
CN1C(=O)CCC2(CCN(CCC(C)(C)C)CC2)c2ccccc21

>  <OBSERVABLE>
EC50

>  <VALUE OBSERVED>
2 to 10 µM

$$$$

Look up EC50 for the entries below, preserving their order.
1. NC(=O)N1CCCC2(CCN(C3CCCCCC3)CC2)c2ccccc21
2. NC(=O)N1CCCC2(CCN(C3C[C@@H]4CC[C@@H]3C4)CC2)c2ccccc21 (stereo partly drawn)
3. O=C1CCC2(CCN(C3C[C@@H]4CC[C@@H]3C4)CC2)c2ccccc2N1 (stereo partly drawn)
4. CC(=O)N1CCCC2(CCN(CC3CCCCC3)CC2)c2ccccc21
5. CCOC(=O)N1CCC(N2CCC3(CCC(=O)N(C)c4ccccc43)CC2)CC1
6. CN(C)C(=O)N1CCCC2(CCN(CC3CCCCC3)CC2)c2ccccc21
7. CC(=O)N1CCCC2(CCN(CC3CC4C=CC3C4)CC2)c2ccccc21 (stereo not drawn)
8. CCOC(=O)N1CCC(N2CCC3(CCC(=O)Nc4ccccc43)CC2)CC1

(A)
1. > 10 µM
2. > 10 µM
3. < 2 µM
4. > 10 µM
5. 2 to 10 µM
6. > 10 µM
7. > 10 µM
8. < 2 µM

====

Molecular target: M1 muscarinic receptor (Homo sapiens)
Construct: expressed in transfected cells; host or cells: CHO
Experiment: Functional mobilization of intracellular calcium (FLIPR) in CHO cells expressing M1
Assay type: cell-based
Conditions: CHO cells expressing M1, calcium mobilization
pEC50: −log10 of the molar value.
OBSERVABLE: pEC50

>  <COMPOUND>
CCOC(=O)N1C2CCC1CC(N1CCC3(CCC(=O)Nc4ccccc43)CC1)C2 (stereo not shown)

>  <TARGET OR TEST SYSTEM>
M1 muscarinic receptor (Homo sapiens)

>  <OBSERVABLE>
pEC50

>  <VALUE OBSERVED>
> 5.70

$$$$
>  <COMPOUND>
CN(C)C(=O)N1CCCC2(CCN(C3C[C@@H]4CC[C@@H]3C4)CC2)c2ccccc21 (stereo partly shown)

>  <TARGET OR TEST SYSTEM>
M1 muscarinic receptor (Homo sapiens)

>  <OBSERVABLE>
pEC50

>  <VALUE OBSERVED>
< 5.00

$$$$
>  <COMPOUND>
NC(=O)N1CCCC2(CCN(CC3CC4C=CC3C4)CC2)c2ccccc21 (stereo not shown)

>  <TARGET OR TEST SYSTEM>
M1 muscarinic receptor (Homo sapiens)

>  <OBSERVABLE>
pEC50

>  <VALUE OBSERVED>
5.00 to 5.70

$$$$

Look up pEC50 for the entries below, preserving their order.
1. CN(C)C(=O)N1CCCC2(CCN(C3CCCCCC3)CC2)c2ccccc21
2. CN(C)C(=O)N1CCCC2(CCN(CCC(C)(C)C)CC2)c2ccccc21
3. CCOC(=O)N1C2CCC1CC(N1CCC3(CCC(=O)N(C)c4ccccc43)CC1)C2 (stereo not shown)
4. CCOC(=O)N1C2CCC1CC(N1CCC3(CCCN(C(N)=O)c4ccccc43)CC1)C2 (stereo not shown)
5. CN1C(=O)CCC2(CCN(C3C[C@@H]4CC[C@@H]3C4)CC2)c2ccccc21 (stereo partly shown)
6. NC(=O)N1CCCC2(CCN(C3CC4CCC(C4)C3)CC2)c2ccccc21 (stereo not shown)

(A)
1: < 5.00; 2: < 5.00; 3: > 5.70; 4: > 5.70; 5: < 5.00; 6: 5.00 to 5.70

Look up pEC50 for the entries below, preserving their order.
1. CCOC(=O)N1C2CCC1CC(N1CCC3(CCCN(C(C)=O)c4ccccc43)CC1)C2 (stereo not shown)
2. CC(=O)N1CCCC2(CCN(C3C[C@@H]4CC[C@@H]3C4)CC2)c2ccccc21 (stereo partly shown)
3. CC(C)(C)CCN1CCC2(CCC(=O)Nc3ccccc32)CC1
4. O=C1CCC2(CCN(CC3CC4C=CC3C4)CC2)c2ccccc2N1 (stereo not shown)

(A)
["> 5.70", "< 5.00", "> 5.70", "5.00 to 5.70"]

====

For each of the compounds below, state its EC50.
Molecular target: M4 muscarinic receptor (Homo sapiens, UniProt P08173)
Sequence (P08173 whole entry): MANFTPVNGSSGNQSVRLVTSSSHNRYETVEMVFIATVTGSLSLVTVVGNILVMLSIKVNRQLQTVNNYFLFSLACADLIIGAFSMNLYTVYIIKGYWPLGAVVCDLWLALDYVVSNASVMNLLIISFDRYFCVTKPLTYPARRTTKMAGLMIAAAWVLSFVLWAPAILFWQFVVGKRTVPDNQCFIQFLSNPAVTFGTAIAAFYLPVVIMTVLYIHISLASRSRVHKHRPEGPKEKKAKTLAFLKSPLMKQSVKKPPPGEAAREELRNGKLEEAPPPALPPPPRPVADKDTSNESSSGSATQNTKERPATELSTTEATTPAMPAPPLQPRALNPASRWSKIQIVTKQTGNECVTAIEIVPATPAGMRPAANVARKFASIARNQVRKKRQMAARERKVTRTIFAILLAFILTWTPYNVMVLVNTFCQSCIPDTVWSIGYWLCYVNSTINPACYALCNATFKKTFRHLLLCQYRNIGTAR
Experiment: Functional mobilization of intracellular calcium (FLIPR) in CHO cells expressing M4
Conditions: CHO cells expressing M4, calcium mobilization

Example results:
>  <COMPOUND>
CCOC(=O)N1C2CCC1CC(N1CCC3(CCC(=O)Nc4ccccc43)CC1)C2 (stereo not drawn) [Compound 4]

>  <EC50>
< 2000 nM

$$$$
>  <COMPOUND>
CN(C)C(=O)N1CCCC2(CCN(C3C[C@@H]4CC[C@@H]3C4)CC2)c2ccccc21 (stereo partly drawn) [Compound 33]

>  <EC50>
> 10000 nM

$$$$
>  <COMPOUND>
CCOC(=O)N1C2CCC1CC(N1CCC3(CCC(=O)N(C)c4ccccc43)CC1)C2 (stereo not drawn) [Compound 30]

>  <EC50>
< 2000 nM

$$$$
>  <COMPOUND>
CN(C)C(=O)N1CCCC2(CCN(C3CC4CCC(C4)C3)CC2)c2ccccc21 (stereo not drawn) [Compound 25]

>  <EC50>
< 2000 nM

$$$$
>  <COMPOUND>
CCOC(=O)N1CCC(N2CCC3(CCCN(C(N)=O)c4ccccc43)CC2)CC1 [Compound 8]

>  <EC50>
2000 to 10000 nM

$$$$

Look up EC50 for the entries below, preserving their order.
1. CCOC(=O)N1C2CCC1CC(N1CCC3(CCCN(C(N)=O)c4ccccc43)CC1)C2 (stereo not drawn) [Compound 22]
2. NC(=O)N1CCCC2(CCN(CC3CCCCC3)CC2)c2ccccc21 [Compound 20]
3. CC(=O)N1CCCC2(CCN(C3C[C@@H]4CC[C@@H]3C4)CC2)c2ccccc21 (stereo partly drawn) [Compound 17]
4. O=C1CCC2(CCN(CC3CC4C=CC3C4)CC2)c2ccccc2N1 (stereo not drawn) [Compound 5]
5. O=C1CCC2(CCN(C3C[C@@H]4CC[C@@H]3C4)CC2)c2ccccc2N1 (stereo partly drawn) [Compound 1]
6. NC(=O)N1CCCC2(CCN(C3CCCCCC3)CC2)c2ccccc21 [Compound 6]

(A)
< 2000 nM
2000 to 10000 nM
> 10000 nM
< 2000 nM
< 2000 nM
> 10000 nM

Look up EC50 for the entries below, preserving their order.
1. CC(C)(C)CCN1CCC2(CCCN(C(N)=O)c3ccccc32)CC1 [Compound 13]
2. CCOC(=O)N1CCC(N2CCC3(CCCN(C(C)=O)c4ccccc43)CC2)CC1 [Compound 14]
3. CCOC(=O)N1CCC(N2CCC3(CCCN(C(=O)N(C)C)c4ccccc43)CC2)CC1 [Compound 23]
4. CCOC(=O)N1C2CCC1CC(N1CCC3(CCCN(C(=O)N(C)C)c4ccccc43)CC1)C2 (stereo not drawn) [Compound 10]
5. NC(=O)N1CCCC2(CCN(C3CC4CCC(C4)C3)CC2)c2ccccc21 (stereo not drawn) [Compound 16]
6. CC(=O)N1CCCC2(CCN(CC3CCCCC3)CC2)c2ccccc21 [Compound 7]

(A)
["< 2000 nM", "< 2000 nM", "< 2000 nM", "2000 to 10000 nM", "< 2000 nM", "2000 to 10000 nM"]
